assay.details: NCI Yeast Anticancer Drug Screen. Data for the cln2 rad14 strain (AID 165);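 also: 0% = growth equal to vehicle treated cultures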
particulars: S. cerevisiae cln2 rad14 strain, at 50.0 µM
The panel holds about 79,000 compounds, 15% with a hit somewhere; the sample as a whole holds those more often. Calls of active or inactive are those of the source. Rule as the data show it: active = growth inhibition above about 70%; inactive = the rest.
Please reply with one of these outcomes: active, inactive

{"compound": "O=S(=O)(N=S(CCCl)CCCl)c1ccccc1", "label.class": "inactive"}

Problem: Kindly provide the recorded test outcome for the following compound: COC(=O)c1cc([N+](=O)[O-])cc([N+](=O)[O-])c1
Solution: inactive

Problem: Kindly provide the recorded test outcome for the following compound: CCOC(OC1=C(C#N)CCCC1)C(C)[Se]c1ccccc1 (centres undefined)
Solution: inactive

###

assay.details: NCI Yeast Anticancer Drug Screen. Data for the mlh1 rad18 strain (AID 175)
particulars: S. cerevisiae mlh1 rad18 strain growth inhibition; at 50.0 µM; hits give high values
The panel holds about 79,000 compounds, 15% with a hit somewhere; the sample as a whole holds those more often.
growth inhibition listing for selected compounds.
Quick note: give the figure in %, leave out the unit.

Known growth inhibition results, listed for orientation:
{"compound": "c1cc2[se][se]c3c4cccc5[se][se]c(c(c1)c23)c54", "recorded.result": -31.1}
{"compound": "O=C(Nc1ccc(N(CCCl)CCCl)cc1)c1ccc([N+](=O)[O-])cc1", "recorded.result": -2.6}
{"compound": "CC(=O)CCNC1(c2ccccc2)CCCCC1", "recorded.result": -2.9}
{"compound": "Nn1cnnc1", "recorded.result": -16.2}
{"compound": "CN=NNc1nc[nH]c1C(N)=O", "recorded.result": 40.5}
{"compound": "CCCCCSP(SCCCCC)c1ccccc1", "recorded.result": 61.8}

Summary for this compound, ClC1CC2CC1C1CNCC21 (stereo not drawn) : growth inhibition is -21

Summary for this compound, CC#CC(O)(C(=O)OC)c1ccccc1 (stereo not drawn) : growth inhibition is -1.9

Summary for this compound, COC1C(OC(=O)/C=C/C=C/C=C/C=C\C(=O)O)CCC2(CO2)C1C1(C)OC1CC=C(C)C (stereo not drawn) : growth inhibition is 24.1

###

assay.details: NCI Yeast Anticancer Drug Screen. Data for the mec2-1 strain (AID 157)
particulars: S. cerevisiae mec2-1 strain, at 50.0 µM, hits give high values
The panel holds about 79,000 compounds, 15% with a hit somewhere; the sample as a whole holds those more often.
growth inhibition listing for selected molecules.
Quick note: give the figure in %, leave out the unit.

Known growth inhibition results, listed for orientation:
{"molecule": "COc1ccc2c(c1)C13CCCCC1C(C2)[N+](C)([O-])CC3 (stereo not given)", "measured.attribute": "growth inhibition", "recorded.result": -19.1}
{"molecule": "ClC12OOC(c3ccccc3)(O1)C(c1ccccc1)c1ccccc12 (stereo not given)", "measured.attribute": "growth inhibition", "recorded.result": 24.1}
{"molecule": "O=S1(=O)CCCCO1", "measured.attribute": "growth inhibition", "recorded.result": 1.65}
{"molecule": "O=C1NC(=O)C(=C/C=C/c2ccccc2)C(=O)N1", "measured.attribute": "growth inhibition", "recorded.result": -3.5}
{"molecule": "CC[O-].CC[O-].O=C([CH-]C(=O)c1ccccc1)c1ccccc1.O=C([CH-]C(=O)c1ccccc1)c1ccccc1.[Ti+4]", "measured.attribute": "growth inhibition", "recorded.result": 30.9}
{"molecule": "O=C(N/N=C/c1cc(Cl)cc(Cl)c1[O-])c1ccccc1O.O=C(N/N=C/c1cc(Cl)cc(Cl)c1[O-])c1ccccc1O.[Ni+2]", "measured.attribute": "growth inhibition", "recorded.result": -15.8}
{"molecule": "O=S(=O)(O)C1CCC(O)C2[N-]CCCC21.O=S(=O)(O)C1CCC(O)C2[N-]CCCC21.[Ni+2] (stereo not given)", "measured.attribute": "growth inhibition", "recorded.result": -4.3}
{"molecule": "COC(=O)C1=COC(C)[C@H]2CN3CCc4c([nH]c5cc(OC)ccc45)C3CC12 (stereo not given in full)", "measured.attribute": "growth inhibition", "recorded.result": -9.95}

Summary for this molecule, Cc1ccc(S(=O)(=O)OC2CC3c4ccccc4C2c2cccc[n+]23)cc1 (stereo not given) : growth inhibition is 7.5

Summary for this molecule, c1ccc(P2c3ccccc3Oc3ccccc32)cc1 : growth inhibition is 7.3

Summary for this molecule, C[N+]12CCC34C5=CC(=O)C(=O)C=C5[N+]5(C)C(=O)CC6OCC=C(C1)C(CC32)C6C45 (stereo not given) : growth inhibition is -22.1

Summary for this molecule, CC[C@H]1CN2CCc3cc(OC)c(OC)cc3[C@@H]2C[C@@H]1C[C@H]1NCCc2c1[nH]c1ccc(O)cc21 : growth inhibition is 17.3

Summary for this molecule, CCCCC1(CCO)C(=O)NC(=O)NC1=O : growth inhibition is -2.65
